- target-entity: MMP-13 (Homo sapiens)
- Construct: made in house; host or cells: baculovirus / insect cells
- assay-name: MMP-13 inhibition (in vitro Ki)
- Assay type: biochemical
- details: Table 9; read-out: MMP-13 Ki (IC-50)
# note: exactly 3 nM is not below, so it is 0 (no); use 1 (yes) for Ki strictly under it

>  <structure-string>
O=C(CCCCN1CCN(S(=O)(=O)C2(C(=O)NO)CCOCC2)CC1)c1cccc(OC(F)(F)F)c1

>  <qualitative-label>
0 (no)

$$$$
>  <structure-string>
O=C(NO)C1(S(=O)(=O)N2CCC(c3ccc(CCC(F)(F)C(F)(F)F)cn3)CC2)CCN(c2cccnc2)CC1

>  <qualitative-label>
1 (yes)

$$$$
>  <structure-string>
O=C(NO)C1(S(=O)(=O)N2CCN(c3ccc(-c4nnn(CC5CC5)n4)cc3)CC2)CCOCC1

>  <qualitative-label>
1 (yes)

$$$$
>  <structure-string>
COCCOc1ccc(C2CCN(S(=O)(=O)C3(C(=O)NO)CCOCC3)CC2)nc1

>  <qualitative-label>
1 (yes)

$$$$
>  <structure-string>
Cc1ccc(N(C)C(=O)CCCC2CCN(S(=O)(=O)C3(C(=O)NO)CCOCC3)CC2)cc1

>  <qualitative-label>
0 (no)

$$$$
>  <structure-string>
CN(CC1CCCCC1)C(=O)CCCC1CCN(S(=O)(=O)C2(C(=O)NO)CCOCC2)CC1

>  <qualitative-label>
0 (no)

$$$$
>  <structure-string>
O=C(NO)C1(S(=O)(=O)N2CCC(F)(c3ccc(CCCC(F)(F)F)cn3)CC2)CCOCC1

>  <qualitative-label>
1 (yes)

$$$$
